# Tested System: Ba/F3-KDR-transfected cells (Homo sapiens, UniProt P35968)
# Construct: BAF3-KDR (MIN IL3) pIC50; other: minus IL3
# Sequence (P35968 whole entry, change not shown): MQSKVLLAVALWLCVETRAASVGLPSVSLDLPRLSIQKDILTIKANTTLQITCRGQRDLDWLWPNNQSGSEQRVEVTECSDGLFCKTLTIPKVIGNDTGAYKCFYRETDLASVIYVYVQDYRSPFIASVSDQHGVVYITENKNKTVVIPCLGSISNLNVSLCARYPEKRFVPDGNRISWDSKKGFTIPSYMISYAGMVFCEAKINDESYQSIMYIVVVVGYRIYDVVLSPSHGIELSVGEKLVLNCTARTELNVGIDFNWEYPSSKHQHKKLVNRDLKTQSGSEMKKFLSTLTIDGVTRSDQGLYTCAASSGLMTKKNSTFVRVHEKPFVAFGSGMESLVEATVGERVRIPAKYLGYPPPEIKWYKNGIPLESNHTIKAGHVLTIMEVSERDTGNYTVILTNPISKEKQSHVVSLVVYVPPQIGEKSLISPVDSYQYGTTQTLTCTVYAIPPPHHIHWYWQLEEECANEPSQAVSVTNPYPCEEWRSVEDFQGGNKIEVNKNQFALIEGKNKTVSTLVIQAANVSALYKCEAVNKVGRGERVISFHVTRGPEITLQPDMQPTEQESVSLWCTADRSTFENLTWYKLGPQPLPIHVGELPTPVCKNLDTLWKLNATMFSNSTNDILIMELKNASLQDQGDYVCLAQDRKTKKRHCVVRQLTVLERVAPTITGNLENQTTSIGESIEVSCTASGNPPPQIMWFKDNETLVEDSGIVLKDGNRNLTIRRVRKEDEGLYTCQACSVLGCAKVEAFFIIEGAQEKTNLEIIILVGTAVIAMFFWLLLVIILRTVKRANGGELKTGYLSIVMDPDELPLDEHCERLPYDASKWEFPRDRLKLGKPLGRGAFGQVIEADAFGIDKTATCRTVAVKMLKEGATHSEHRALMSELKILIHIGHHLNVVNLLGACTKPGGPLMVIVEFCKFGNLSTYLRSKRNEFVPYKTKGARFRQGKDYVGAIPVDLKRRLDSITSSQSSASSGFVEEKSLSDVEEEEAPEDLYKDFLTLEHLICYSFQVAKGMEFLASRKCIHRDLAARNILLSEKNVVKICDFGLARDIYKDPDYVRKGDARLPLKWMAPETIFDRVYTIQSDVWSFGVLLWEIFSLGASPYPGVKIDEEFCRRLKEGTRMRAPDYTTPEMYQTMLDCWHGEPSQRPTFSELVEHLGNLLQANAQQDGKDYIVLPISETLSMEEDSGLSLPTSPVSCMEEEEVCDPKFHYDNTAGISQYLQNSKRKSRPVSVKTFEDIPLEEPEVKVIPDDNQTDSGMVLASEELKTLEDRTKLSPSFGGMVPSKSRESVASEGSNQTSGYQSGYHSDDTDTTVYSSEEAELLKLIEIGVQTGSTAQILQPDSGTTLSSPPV
# Assay Name: Ba/F3-KDR (minus IL3) cellular proliferation assay, Alamar Blue
# Format: cell-based
Threshold 6. BAF3-KDR (MIN IL3) pIC50 below it: criterion met. BAF3-KDR (MIN IL3) pIC50 at it or above: criterion not met.

Compound: COc1cc(/N=c2\ccc3ncc(-c4cnn(C)c4)nc3n2CC2CCC(=O)N2)cc(OC)c1 (stereo not drawn)
Tested System: Ba/F3-KDR-transfected cells (Homo sapiens, UniProt P35968)
Qualitative Label: criterion met

Compound: CNCCN(c1ccc2ncc(-c3cnn(C)c3)nc2n1)c1c(Cl)c(OC)cc(OC)c1Cl
Tested System: Ba/F3-KDR-transfected cells (Homo sapiens, UniProt P35968)
Qualitative Label: criterion met

Compound: COc1cc(/N=c2\ccc3ncc(-c4cnn(C)c4)nc3n2Cc2cn[nH]c2)c(F)c(OC)c1
Tested System: Ba/F3-KDR-transfected cells (Homo sapiens, UniProt P35968)
Qualitative Label: criterion not met

Compound: COc1cc(OC)cc(N(Cc2nnc(NCCO)o2)c2ccc3ncc(-c4cnn(C)c4)nc3n2)c1
Tested System: Ba/F3-KDR-transfected cells (Homo sapiens, UniProt P35968)
Qualitative Label: criterion met

Compound: COc1cc(OC)c(F)c(N(Cc2ncc[nH]2)c2ccc3ncc(-c4cnn(C5COC5)c4)nc3n2)c1
Tested System: Ba/F3-KDR-transfected cells (Homo sapiens, UniProt P35968)
Qualitative Label: criterion not met

Compound: COc1cc(OC)c(F)c(N(CC2COC2)c2ccc3ncc(-c4cnn(C)c4)nc3n2)c1
Tested System: Ba/F3-KDR-transfected cells (Homo sapiens, UniProt P35968)
Qualitative Label: criterion met

Compound: COc1cc(OC)c(F)c(N(CCCN2CCCC2=O)c2ccc3ncc(-c4cnn(C)c4)nc3n2)c1F
Tested System: Ba/F3-KDR-transfected cells (Homo sapiens, UniProt P35968)
Qualitative Label: criterion not met

Compound: COc1cc(OC)c(F)c(N(CC(O)COC(C)C)c2ccc3ncc(-c4cnn(C)c4)nc3n2)c1F (stereo not drawn) [Compound 61]
Tested System: Ba/F3-KDR-transfected cells (Homo sapiens, UniProt P35968)
Qualitative Label: criterion not met

Compound: COc1cc(OC)cc(N(CCCO)c2ccc3ncc(-c4cnn(C)c4)nc3n2)c1
Tested System: Ba/F3-KDR-transfected cells (Homo sapiens, UniProt P35968)
Qualitative Label: criterion met

Compound: COc1cc(/N=c2\ccc3ncc(-c4cnn(C)c4)nc3n2CCN)c(F)c(OC)c1
Tested System: Ba/F3-KDR-transfected cells (Homo sapiens, UniProt P35968)
Qualitative Label: criterion met

Compound: COc1cc(OC)c(F)c(N(CC2CC2)c2ccc3ncc(-c4cnn(C)c4)nc3n2)c1F (single isomer, unassigned)
Tested System: Ba/F3-KDR-transfected cells (Homo sapiens, UniProt P35968)
Qualitative Label: criterion met

Compound: COc1cc(OC)c(F)c(N(CC2CCC(=O)N2)c2ccc3ncc(-c4cnn(CC(C)(C)O)c4)nc3n2)c1 (stereo not drawn)
Tested System: Ba/F3-KDR-transfected cells (Homo sapiens, UniProt P35968)
Qualitative Label: criterion met

Compound: COc1cc(OC)c(F)c(N(CC2COC(=O)N2)c2ccc3ncc(-c4cnn(C)c4)nc3n2)c1 (single isomer, unassigned) [Compound 111]
Tested System: Ba/F3-KDR-transfected cells (Homo sapiens, UniProt P35968)
Qualitative Label: criterion met

Compound: COc1cc(OC)c(F)c(/N=c2\ccc3ncc(-c4cnn(C)c4)nc3n2CC2CCC(=O)N2)c1F (stereo not drawn) [Compound 47]
Tested System: Ba/F3-KDR-transfected cells (Homo sapiens, UniProt P35968)
Qualitative Label: criterion not met

Compound: COc1ccc(F)c(N(Cc2ncc[nH]2)c2ccc3ncc(-c4cnn(C)c4)nc3n2)c1Cl
Tested System: Ba/F3-KDR-transfected cells (Homo sapiens, UniProt P35968)
Qualitative Label: criterion met

====

# Tested System: FGFR1 (h) (Homo sapiens, UniProt P11362)
# Sequence (P11362 22-822): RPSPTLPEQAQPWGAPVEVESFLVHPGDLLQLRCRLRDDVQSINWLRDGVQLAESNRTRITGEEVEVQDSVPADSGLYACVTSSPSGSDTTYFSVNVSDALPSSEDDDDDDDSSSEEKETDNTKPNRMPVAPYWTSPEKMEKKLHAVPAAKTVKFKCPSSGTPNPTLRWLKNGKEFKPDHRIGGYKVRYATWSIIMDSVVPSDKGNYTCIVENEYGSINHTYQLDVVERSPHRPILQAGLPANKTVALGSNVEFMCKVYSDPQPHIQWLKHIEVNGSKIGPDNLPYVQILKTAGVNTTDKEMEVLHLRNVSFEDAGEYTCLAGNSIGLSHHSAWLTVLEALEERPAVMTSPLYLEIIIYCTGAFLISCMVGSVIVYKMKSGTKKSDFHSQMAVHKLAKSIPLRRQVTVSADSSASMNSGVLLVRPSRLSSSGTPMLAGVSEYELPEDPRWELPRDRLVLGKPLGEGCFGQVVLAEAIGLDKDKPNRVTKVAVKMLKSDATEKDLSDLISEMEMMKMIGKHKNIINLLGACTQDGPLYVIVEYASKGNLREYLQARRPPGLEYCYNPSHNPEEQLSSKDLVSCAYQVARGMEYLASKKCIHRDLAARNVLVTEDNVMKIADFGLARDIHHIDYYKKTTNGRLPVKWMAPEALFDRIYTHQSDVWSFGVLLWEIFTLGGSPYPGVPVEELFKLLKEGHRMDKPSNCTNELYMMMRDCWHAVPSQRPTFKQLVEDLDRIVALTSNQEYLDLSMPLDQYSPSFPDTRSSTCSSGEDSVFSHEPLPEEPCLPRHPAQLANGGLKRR
# Assay Name: FGFR1 (enzymatic assay), TR-FRET
# Format: biochemical
# Experimental Context: read-out: FGFR 1 pIC50 (converted)
The compounds listed here are annotated with their IC50.

Compound: COc1cc(/N=c2\ccc3ncc(-c4cnn(C)c4)nc3n2CC2CCC(=O)N2CCO)c(F)c(OC)c1 (single isomer, unassigned) [Compound 219]
IC50 / nM: 0.813
//
Compound: CNCCN(c1ccc2ncc(-c3cnn(C)c3)nc2n1)c1c(F)c(O)cc(OC)c1F
IC50 / nM: 2.82
//
Compound: COc1cc(OC)cc(N(Cc2ncc[nH]2)c2ccc3ncc(-c4ccccc4)nc3n2)c1
IC50 / nM: 1.07
//
Compound: COc1cc(OC)cc(N(Cc2ncc[nH]2)c2ccc3ncc(-c4ccn(C)c4)nc3n2)c1
IC50 / nM: 0.309

====

# Tested System: Ba/F3-KDR-transfected cells (Homo sapiens)
# Construct: BAF3-KDR (MIN IL3) pIC50; other: minus IL3
# Assay Name: Ba/F3-KDR (minus IL3) cellular proliferation assay, Alamar Blue
# Type: cell-based
Threshold 6. BAF3-KDR (MIN IL3) pIC50 below it: yes (1). BAF3-KDR (MIN IL3) pIC50 at it or above: no (0).

Molecule: COc1cc(OC)c(F)c(N(CCNC(C)C)c2ccc3ncc(-c4cnn(C)c4)nc3n2)c1
Qualitative Label: no (0)

Molecule: COc1cc(OC)c(F)c(N(Cc2cc(C)on2)c2ccc3ncc(-c4cnn(C)c4)nc3n2)c1
Qualitative Label: yes (1)

Molecule: COc1cc(OC)c(F)c(N(CCN)c2ccc3ncc(-c4cnn(C)c4)nc3n2)c1F
Qualitative Label: no (0)

Molecule: COc1cc(OC)cc(N(CC(O)C(F)(F)F)c2ccc3ncc(-c4cnn(C)c4)nc3n2)c1 (stereo not shown) [Compound 8]
Qualitative Label: yes (1)

Molecule: COc1cc(/N=c2\ccc3ncc(-c4cnn(C)c4)nc3n2CC2COC(=O)N2)c(F)c(OC)c1 (single isomer, unassigned) [Compound 112]
Qualitative Label: yes (1)

Molecule: COc1cc(OC)cc(N(CC2COC2)c2ccc3ncc(-c4cnn(C)c4)nc3n2)c1
Qualitative Label: yes (1)

====

The compounds listed here are annotated with their BAF3-FGFR3 (MIN IL3) pIC50.
# Tested System: Ba/F3-FGFR3-transfected cells (Homo sapiens, UniProt P22607)
# Construct: BAF3-FGFR3 (MIN IL3) pIC50; other: minus IL3
# Sequence (P22607 whole entry, change not shown): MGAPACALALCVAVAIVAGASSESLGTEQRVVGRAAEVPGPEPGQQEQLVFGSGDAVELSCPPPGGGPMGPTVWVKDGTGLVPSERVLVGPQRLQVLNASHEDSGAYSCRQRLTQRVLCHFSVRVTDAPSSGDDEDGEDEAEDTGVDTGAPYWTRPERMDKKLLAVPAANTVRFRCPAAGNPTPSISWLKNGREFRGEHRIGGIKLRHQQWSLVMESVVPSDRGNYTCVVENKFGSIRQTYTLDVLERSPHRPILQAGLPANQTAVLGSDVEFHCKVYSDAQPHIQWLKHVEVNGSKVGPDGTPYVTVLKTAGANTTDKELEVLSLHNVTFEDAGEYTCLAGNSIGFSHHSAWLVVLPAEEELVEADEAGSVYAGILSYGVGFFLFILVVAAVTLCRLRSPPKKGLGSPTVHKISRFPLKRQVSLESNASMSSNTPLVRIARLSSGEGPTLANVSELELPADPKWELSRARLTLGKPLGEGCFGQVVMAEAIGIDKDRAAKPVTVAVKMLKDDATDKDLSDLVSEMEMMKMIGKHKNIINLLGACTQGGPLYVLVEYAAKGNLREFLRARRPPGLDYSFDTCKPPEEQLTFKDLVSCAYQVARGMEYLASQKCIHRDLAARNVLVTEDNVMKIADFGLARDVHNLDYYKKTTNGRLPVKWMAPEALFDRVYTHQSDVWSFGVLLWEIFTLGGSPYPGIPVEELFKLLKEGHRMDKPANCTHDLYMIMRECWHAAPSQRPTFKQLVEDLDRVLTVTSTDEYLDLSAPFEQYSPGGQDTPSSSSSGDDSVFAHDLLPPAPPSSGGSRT
# Assay Name: Ba/F3-FGFR3 (minus IL3) cellular proliferation assay, Alamar Blue
# Type: cell-based
Measurement Name: BAF3-FGFR3 (MIN IL3) pIC50

Compound: COc1cc(OC)c(F)c(/N=c2\ccc3ncc(-c4cnn(C)c4)nc3n2CC2CC2)c1F (single isomer, unassigned)
Tested System: Ba/F3-FGFR3-transfected cells (Homo sapiens, UniProt P22607)
Recorded Measurement: 8.16
--
Compound: COCC(O)CN(c1ccc2ncc(-c3cnn(C)c3)nc2n1)c1c(F)c(OC)cc(OC)c1F (stereo not shown)
Tested System: Ba/F3-FGFR3-transfected cells (Homo sapiens, UniProt P22607)
Recorded Measurement: ~8.11
--
Compound: COc1cc(OC)c(F)c(N(CC2CCC(=O)N2)c2ccc3ncc(-c4cnn(C5CNC5)c4)nc3n2)c1 (stereo not shown)
Tested System: Ba/F3-FGFR3-transfected cells (Homo sapiens, UniProt P22607)
Recorded Measurement: 5.94
--
Compound: COc1cc(/N=c2\ccc3ncc(-c4cnn(C)c4)nc3n2CCCO)cc(OC)c1
Tested System: Ba/F3-FGFR3-transfected cells (Homo sapiens, UniProt P22607)
Recorded Measurement: 8.0
--
Compound: COc1cc(OC)c(F)c(N(CCNC2COC2)c2ccc3ncc(-c4cnn(C)c4)nc3n2)c1F (single isomer, unassigned)
Tested System: Ba/F3-FGFR3-transfected cells (Homo sapiens, UniProt P22607)
Recorded Measurement: 7.95
--
Compound: COc1cc(OC)c(F)c(N(CC2CCC(=O)N2)c2ccc3ncc(-c4cnn(C)c4)nc3n2)c1F (stereo not shown) [Compound 192]
Tested System: Ba/F3-FGFR3-transfected cells (Homo sapiens, UniProt P22607)
Recorded Measurement: 7.78
--
Compound: COc1cc(OC)c(F)c(N(Cc2c[nH]c(C)n2)c2ccc3ncc(-c4cnn(C)c4)nc3n2)c1
Tested System: Ba/F3-FGFR3-transfected cells (Homo sapiens, UniProt P22607)
Recorded Measurement: 7.64

====

# Tested System: Ba/F3-FGFR4-transfected cells (Homo sapiens, UniProt P22455)
# Sequence (P22455 whole entry, change not shown): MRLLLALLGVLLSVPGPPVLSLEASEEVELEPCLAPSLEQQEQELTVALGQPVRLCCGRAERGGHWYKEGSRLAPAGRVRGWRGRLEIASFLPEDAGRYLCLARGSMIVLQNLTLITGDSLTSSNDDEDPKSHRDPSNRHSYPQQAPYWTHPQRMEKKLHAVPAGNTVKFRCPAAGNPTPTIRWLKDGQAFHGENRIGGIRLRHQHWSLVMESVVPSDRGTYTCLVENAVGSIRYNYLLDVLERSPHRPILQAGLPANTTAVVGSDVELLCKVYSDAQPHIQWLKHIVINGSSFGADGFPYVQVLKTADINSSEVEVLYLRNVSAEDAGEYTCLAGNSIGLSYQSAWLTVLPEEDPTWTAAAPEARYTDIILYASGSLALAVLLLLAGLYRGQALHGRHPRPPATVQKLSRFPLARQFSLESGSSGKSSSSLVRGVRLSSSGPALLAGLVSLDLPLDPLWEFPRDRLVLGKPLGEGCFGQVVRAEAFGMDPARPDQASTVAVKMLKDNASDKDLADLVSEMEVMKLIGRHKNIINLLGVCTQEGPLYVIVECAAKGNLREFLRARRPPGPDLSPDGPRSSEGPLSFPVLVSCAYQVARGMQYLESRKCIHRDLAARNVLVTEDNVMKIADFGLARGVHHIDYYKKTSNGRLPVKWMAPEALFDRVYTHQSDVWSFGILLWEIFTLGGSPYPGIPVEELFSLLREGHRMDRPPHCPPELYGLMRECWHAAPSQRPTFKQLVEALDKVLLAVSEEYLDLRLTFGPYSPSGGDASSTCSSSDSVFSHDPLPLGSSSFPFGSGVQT
# Assay Name: Ba/F3-FGFR4 cellular proliferation assay, Alamar Blue
# Format: cell-based
Counter-ions that a name gives are not always drawn.
Threshold 7. BAF3-FGFR4 pIC50 below it: satisfied. BAF3-FGFR4 pIC50 at it or above: not satisfied.

Compound: COc1cc(OC)c(F)c(N(CC2CCC(=O)N2)c2ccc3ncc(-c4cnn(CC(C)(C)O)c4)nc3n2)c1 (stereo not shown)
Qualitative Label: satisfied

Compound: COc1cc(OC)cc(N(Cc2ncc[nH]2)c2ccc3ncc(-c4cnn(C)c4)nc3n2)c1 (racemic) [24-DL-tartrate salt]
Qualitative Label: not satisfied

Compound: COc1cc(OC)c(F)c(N(CC(=O)NCCO)c2ccc3ncc(-c4cnn(C)c4)nc3n2)c1
Qualitative Label: satisfied

Compound: COc1cc(OC)c(F)c(/N=c2\ccc3ncc(-c4cnn(C)c4)nc3n2CCCN2CCCC2=O)c1F
Qualitative Label: not satisfied

Compound: COc1cc(OC)c(F)c(N(CC(O)COC(C)C)c2ccc3ncc(-c4cnn(C)c4)nc3n2)c1 (single isomer, unassigned) [Compound 79]
Qualitative Label: not satisfied
